Test system: HepG2
run-parameters: CC50 HepG2 (µM)
Bridge positions count the residues as written; N and C are the ends. Square brackets hold non-standard residues; d marks the D form. Peptide text beside a SMILES is read from it. * marks the point of attachment. dBip = N[C@H](Cc1ccc(-c2ccccc2)cc1)C(=O)O; hSer = N[C@@H](CCO)C(=O)O; Octanoyl = CCCCCCCC(=O)*; Dab = NCC[C@H](N)C(=O)O
Entries and their CC50

{"columns": ["compound", "CC50"],
 "data": [
  ["CCCCCCCC(=O)N[C@@H](CCN)C(=O)N[C@H](C(=O)N[C@@H](CCN)C(=O)N[C@H]1CCNC(=O)[C@H]([C@@H](C)O)NC(=O)[C@H](CCN)NC(=O)[C@H](CCN)NC(=O)[C@H](CC(C)C)NC(=O)[C@@H](Cc2ccccc2)NC(=O)[C@H](CCCNC(=N)N)NC1=O)[C@@H](C)O [Compound 35] (Octanoyl-[Dab]T[Dab][Dab]R[dF]L[Dab][Dab]T; lactam 4-C)", "> 300 µM"],
  ["CCCCCCCC(=O)N[C@@H](CCN)C(=O)N[C@H](C(=O)N[C@@H](CCN)C(=O)N[C@H]1CCNC(=O)[C@H]([C@@H](C)O)NC(=O)[C@H](CCN)NC(=O)[C@H](CCN)NC(=O)[C@H](CC(C)C)NC(=O)[C@@H](Cc2ccc(-c3ccccc3)cc2)NC(=O)[C@H](CCN)NC1=O)[C@@H](C)O (Octanoyl-[Dab]T[Dab][Dab][Dab][dBip]L[Dab][Dab]T; lactam 4-C)", "119 µM"],
  ["CCCCCCCC(=O)N[C@@H](CCN)C(=O)N[C@H](C(=O)N[C@@H](CCN)C(=O)N[C@H]1CCNC(=O)[C@H]([C@@H](C)O)NC(=O)[C@H](CCN)NC(=O)[C@H](CCN)NC(=O)[C@H](CC(C)C)NC(=O)[C@@H](Cc2ccccc2)NC(=O)[C@H](CCNC(=O)[C@@H](N)CCCNC(=N)N)NC1=O)[C@@H](C)O [Compound 31] (Octanoyl-[Dab]T[Dab][Dab][Dab](Arg)[dF]L[Dab][Dab]T; lactam 4-C)", "> 300 µM"],
  ["CCCCCCCC(=O)N[C@@H](CCN)C(=O)N[C@H](C(=O)N[C@@H](CCN)C(=O)N[C@H]1CCNC(=O)[C@H]([C@@H](C)O)NC(=O)[C@H](CCN)NC(=O)[C@H](CCN)NC(=O)[C@H](CC(C)C)NC(=O)[C@@H](Cc2ccccc2)NC(=O)[C@H](CCO)NC1=O)[C@@H](C)O [Compound 33] (Octanoyl-[Dab]T[Dab][Dab][hSer][dF]L[Dab][Dab]T; lactam 4-C)", "> 300 µM"],
  ["CCCCCCCC(=O)N[C@@H](CCN)C(=O)N[C@H](C(=O)N[C@@H](CCN)C(=O)N[C@H]1CCNC(=O)[C@H]([C@@H](C)O)NC(=O)[C@H](CCNC(=O)[C@@H](N)CCC(=O)O)NC(=O)[C@H](CCN)NC(=O)[C@H](CC(C)C)NC(=O)[C@@H](Cc2ccccc2)NC(=O)[C@H](CCN)NC1=O)[C@@H](C)O [Compound 19] (Octanoyl-[Dab]T[Dab][Dab][Dab][dF]L[Dab][Dab](Glu)T; lactam 4-C)", "> 300 µM"],
  ["CCCCCCCC(=O)NCC(=O)N[C@@H](CCN)C(=O)N[C@H](C(=O)N[C@H]1CCNC(=O)[C@H]([C@@H](C)O)NC(=O)[C@H](CCN)NC(=O)[C@H](CCN)NC(=O)[C@H](CC(C)C)NC(=O)[C@@H](Cc2ccccc2)NC(=O)[C@H](CCN)NC1=O)[C@@H](C)O [Compound 41] (Octanoyl-G[Dab]T[Dab][Dab][dF]L[Dab][Dab]T; lactam 4-C)", "> 300 µM"]
]}
